- subjectOfTest: Cytochrome P450 3A4 (Homo sapiens) (UniProt P08684)
- Sequence (P08684 whole entry, looked up): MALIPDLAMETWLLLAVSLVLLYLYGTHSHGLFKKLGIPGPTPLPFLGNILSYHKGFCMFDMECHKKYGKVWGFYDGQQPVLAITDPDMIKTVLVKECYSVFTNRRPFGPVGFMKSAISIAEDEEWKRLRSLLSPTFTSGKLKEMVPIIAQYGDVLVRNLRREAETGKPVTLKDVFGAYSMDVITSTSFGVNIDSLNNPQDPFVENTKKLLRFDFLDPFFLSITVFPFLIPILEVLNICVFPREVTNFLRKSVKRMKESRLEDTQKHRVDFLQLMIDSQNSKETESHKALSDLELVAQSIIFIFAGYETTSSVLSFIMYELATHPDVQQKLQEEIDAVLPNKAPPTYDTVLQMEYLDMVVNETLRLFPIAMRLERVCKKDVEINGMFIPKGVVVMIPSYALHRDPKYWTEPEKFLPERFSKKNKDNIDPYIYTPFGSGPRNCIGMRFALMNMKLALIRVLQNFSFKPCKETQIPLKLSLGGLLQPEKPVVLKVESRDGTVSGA
- method: qHTS Assay for Inhibitors and Substrates of Cytochrome P450 3A4 (AID 884); further: nearly all actives have a fitted effect of over 50% in size
- conditionLabel: recombinant CYP3A4, Luciferin-PPXE luminescence; series mostly up to 57.1 µM
Inconclusive results are not listed. Activity calls are given as the source filed them. The call rests on the fitted dose curve; in most records, active means well fitted inhibition curve with a large enough effect; inconclusive means small, poorly fitted or top-dose-only effect; inactive means no such curve, though single readings can be large or run the other way.
Log the outcome using a class from 1 = active, -1 = inactive

// query Check the results log: what was the call for CC(=O)Oc1ccc2c(c1)CCC1C2CC[C@@]2(C)C1CC(OC(C)=O)C2OC(C)=O (some centres not stated) ?
// result -1

// query What classification did COc1ccc2c(c1)OCC(Cc1ccc(OC)c(O)c1)C2=O (configuration not stated) end up with in this test?
// result 1

// query Call for entry CC1(C)C(=O)CC[C@@]2(C)C1CC(O)[C@@]1(C)C3=CC(=O)OC(c4ccoc4)[C@]3(C)CCC21 (some centres not stated) :
// result 1

// query Any idea what this test logged for CNC(CC(=O)O)C(=O)O (configuration not stated) ?
// result -1

// query Outcome logged for O=C(/C=C/C(=O)Oc1ccccc1C(=O)O)Oc1ccccc1C(=O)O in this assay:
// result -1

// query Which outcome was entered for the compound Nc1ncnc2c1nc(Cl)n2C1OC(CO)C(O)C1O (configuration not stated) in this test?
// result -1

// query Recorded test call requested for COc1ccc(-c2coc3c(OC)c(OC)cc(OC)c3c2=O)cc1
// result -1

// query So what was the verdict on COc1ccc(C(=O)c2ccccc2)c(O)c1O in this test?
// result -1

// query # outcome recorded in this test, key = COC1C(O)C(CO)OC1n1c(Br)nc2c(=O)[nH]c(N)nc21 (configuration not stated)
// result -1

// query Recorded test outcome, item CC12CCC3C(CC3(C)C)C(C)(CCC1=O)O2 (configuration not stated)
// result -1

// query Call for entry O=c1cc(-c2ccc(O)c(O)c2)oc2ccccc12 :
// result 1

// query Per the records of this test, what outcome belongs to O=C(O)c1cc2cc(Cl)ccc2[nH]1 ?
// result -1

// query Short answer needed: outcome of this test for O=c1oc2ccccc2cc1O ?
// result -1

// query Short answer needed: outcome of this test for COc1cc(O)c(C(C)=O)c(OC)c1 ?
// result 1

// query Per the assay record, what outcome was assigned to OC/C=C/c1ccc(O)c(O)c1 ?
// result 1

// query What classification did COc1c(Cl)ccc(Cl)c1C(=O)O end up with in this test?
// result -1

// query Recorded test call requested for COC(=O)C(O)C1C(C)(C)C(OC(C)=O)C2CC3=C4CC(=O)OC(c5ccoc5)[C@]4(C)CCC3[C@@]1(C)C2=O (some centres not stated)
// result 1

// query Dear colleague, could you share the recorded outcome for COc1cc(C2c3cc4c(cc3C(O[C@@H]3OC5COC(c6cccs6)OC5C(O)C3O)C3COC(=O)C23)OCO4)cc(OC)c1O (some centres not stated) when you have a moment?
// result 1

// query Could you kindly confirm the outcome this assay logged for CC(=O)OC1C[C@@]2(C)C(c3ccoc3)OC(=O)C3O[C@@]32[C@]2(C)C(OC(C)=O)CC3C(C)(C)C(OC(C)=O)CC(OC(C)=O)[C@@]3(C)C12 (some centres not stated) ?
// result 1

// query In this assay, the call recorded for CC1=C(/C=C/C(C)=C/C=C/C(C)=C/C=C/C=C(C)/C=C/C=C(C)/C=C/C(=O)[C@]2(C)CC(O)CC2(C)C)C(C)(C)CC(O)C1 (some centres not stated) was what?
// result -1

// query Which outcome was assigned to NC(C(=O)O)[C@@H]1CC(Cl)=NO1 (some centres not stated) in this test?
// result -1

// query I'd appreciate the recorded outcome for CCOc1ccc(C(=O)c2ccc(O)c(O)c2O)cc1 from this test.
// result -1
